target entity: human plasma Kallikrein (Homo sapiens)
Construct: purchased Stratech, UK
Sequence (P03952 20-638): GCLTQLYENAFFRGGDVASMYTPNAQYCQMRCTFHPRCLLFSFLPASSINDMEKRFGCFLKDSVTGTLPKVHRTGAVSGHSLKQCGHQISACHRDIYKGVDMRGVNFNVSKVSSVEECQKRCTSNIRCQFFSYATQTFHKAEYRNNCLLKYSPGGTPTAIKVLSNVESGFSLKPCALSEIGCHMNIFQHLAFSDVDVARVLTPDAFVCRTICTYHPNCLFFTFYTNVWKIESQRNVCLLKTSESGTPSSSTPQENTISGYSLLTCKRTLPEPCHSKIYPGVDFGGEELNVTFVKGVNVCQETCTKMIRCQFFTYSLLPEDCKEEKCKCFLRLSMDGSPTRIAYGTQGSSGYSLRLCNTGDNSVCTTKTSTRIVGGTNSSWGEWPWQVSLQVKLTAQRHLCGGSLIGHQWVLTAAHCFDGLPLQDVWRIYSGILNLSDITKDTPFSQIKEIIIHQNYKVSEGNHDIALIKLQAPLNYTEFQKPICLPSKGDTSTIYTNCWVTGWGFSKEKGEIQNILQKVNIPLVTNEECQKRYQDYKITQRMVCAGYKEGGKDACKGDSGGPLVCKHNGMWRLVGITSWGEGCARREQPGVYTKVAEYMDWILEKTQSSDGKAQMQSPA
assay details: Functional enzyme inhibition assay with fluorogenic substrate Z-PheArg-AMC, human plasma Kallikrein
Type: biochemical
recorded conditions: Table 24c, residue 8 modifications; read-out: Ki
Protocol: Functional enzyme assays were conducted in 10 mM Tris HCl, 150 mM NaCl, 10 mM MgCl2, 1 mM CaCl2) and 1 mg/mL BSA (all Sigma UK) pH7.4 at 25° C. in solid black 96 well plates. […] Release of AMC was measured using a Pherastar FS (BMG Labtech), excitation 360 nm, emission 460 nm. The rate of the linear phase of the reaction, typically 5 to 45 minutes, was calculated in MARS data analysis software (BMG labtech). […]
Numbered stars: 1 amine (or outer) side, 2 acyl side, 3 side chain; on linkers, the order of the positions; unused ones are H or OH. Bridge positions count the residues as written; N and C are the ends. Square brackets hold non-standard residues; d marks the D form. Peptide text beside a SMILES is read from it. TBMB = c1c(C[*:1])cc(C[*:3])cc1C[*:2]; β3hQ = NC(=O)CC[C@H](N)CC(=O)O
property measured: pKi
Scale: pKi equals -log10([C]), with [C] in mol/L.

Would you mind telling me what pKi value was observed for CC(=O)N[C@H]1CSCc2cc3cc(c2)CSC[C@H](NC(=O)[C@H](CCCNC(=N)N)NC(=O)[C@H](Cc2ccc(O)cc2)NC(=O)[C@@H]2CCCN2C(=O)[C@H](Cc2ccccc2)NC(=O)[C@H](CO)NC1=O)C(=O)N[C@@H](CC(C)C)C(=O)N[C@@H](Cc1c[nH]cn1)C(=O)N[C@@H](CCC(N)=O)CC(=O)N[C@@H](CC(=O)O)C(=O)N[C@@H](CC(C)C)C(=O)N[C@H](C(N)=O)CSC3 [Ac-(06-34-18) Phe2 Tyr4 bHGln8] (Ac-CSFPYRCLH[β3hQ]DLC-NH2; linker 1-7-13 via TBMB) ? 7.77
